A collection of molecules and their measured Activity
systemUnderTest: Glutamate receptor ionotropic, kainate 2 (Rattus norvegicus)
procedureText: Activity at rat cloned iGluR6 expressed in human HEK293 cells by calcium imaging assay relative to L-glutamate
Assay type: cell-based
Parameters: concentration or dose not given beside the values
Could you give me the number in %? Just the number is fine.

Query: // Input: N[C@H](C(=O)O)c1cc(O)no1 [IBOTENIC ACID] . Output its Activity only.
Result: 96

Query: // Input: N[C@@H](C(=O)O)[C@H]1CC(O)=NO1 . Output its Activity only.
Result: 11

Query: // Input: N[C@H](C(=O)O)[C@@H]1CC(O)=NO1 . Output its Activity only.
Result: 91

Query: // Input: N[C@@H](C(=O)O)[C@@H]1CC(O)=NO1 . Output its Activity only.
Result: 15

Query: // Input: N[C@H](C(=O)O)[C@H]1CC(O)=NO1 . Output its Activity only.
Result: 11

* * *

systemUnderTest: Metabotropic glutamate receptor 2 (Rattus norvegicus, UniProt P31421)
Sequence (P31421 whole entry): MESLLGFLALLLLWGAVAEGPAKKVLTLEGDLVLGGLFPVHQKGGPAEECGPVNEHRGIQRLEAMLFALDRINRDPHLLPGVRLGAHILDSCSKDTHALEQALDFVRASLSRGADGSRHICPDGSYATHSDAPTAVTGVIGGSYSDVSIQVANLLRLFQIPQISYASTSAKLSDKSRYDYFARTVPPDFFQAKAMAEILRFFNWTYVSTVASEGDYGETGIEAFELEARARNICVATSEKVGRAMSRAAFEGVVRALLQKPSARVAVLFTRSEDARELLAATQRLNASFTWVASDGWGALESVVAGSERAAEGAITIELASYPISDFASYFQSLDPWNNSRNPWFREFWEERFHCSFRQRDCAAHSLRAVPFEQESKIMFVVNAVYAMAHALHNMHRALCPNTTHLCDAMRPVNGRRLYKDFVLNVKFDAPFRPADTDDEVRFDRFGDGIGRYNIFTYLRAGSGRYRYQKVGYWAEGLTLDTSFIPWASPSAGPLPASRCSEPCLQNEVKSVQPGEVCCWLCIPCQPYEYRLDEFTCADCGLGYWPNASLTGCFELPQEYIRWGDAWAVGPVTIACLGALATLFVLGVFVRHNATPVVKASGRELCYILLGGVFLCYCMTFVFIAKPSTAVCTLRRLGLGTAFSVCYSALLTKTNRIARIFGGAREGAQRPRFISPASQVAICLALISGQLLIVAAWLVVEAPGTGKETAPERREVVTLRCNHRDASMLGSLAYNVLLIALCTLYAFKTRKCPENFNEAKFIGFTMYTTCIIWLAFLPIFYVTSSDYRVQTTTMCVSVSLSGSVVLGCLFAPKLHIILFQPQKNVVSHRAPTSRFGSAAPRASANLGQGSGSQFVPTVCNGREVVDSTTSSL
procedureText: Activity at rat cloned mGluR2 expressed in CHO cells assessed as effect on cAMP accumulation
quantityMeasured: EC50

Below, 3 compounds whose answers are already recorded.
N[C@H](C(=O)O)[C@@H]1CC(O)=NO1; > 1000 µM
N[C@H](C(=O)O)[C@H]1CC(O)=NO1; 84 µM
N[C@@H](C(=O)O)[C@H]1CC(O)=NO1; > 1000 µM

Query: // Input: NC(C(=O)O)C1CC(O)=NO1 (racemic; form 2) [TRICHOLOMIC ACID] . Output its EC50 only.
Result: 100 µM

Query: // Input: NC(C(=O)O)C1CC(O)=NO1 (racemic; form 1) [TRICHOLOMIC ACID] . Output its EC50 only.
Result: > 1000 µM

Query: // Input: N[C@@H](C(=O)O)[C@@H]1CC(O)=NO1 . Output its EC50 only.
Result: > 1000 µM

* * *

procedureText: Displacement of [3H]KA from kainate receptor in rat cortical membrane
Format: cell membranes
Mark yes (1) for reported Log IC50 of -5 or greater; mark no (0) for anything smaller.

As a guide, the following entries are already answered.
NC(C(=O)O)C1CC(O)=NO1 (racemic; form 2) [TRICHOLOMIC ACID]; no (0)
N[C@H](C(=O)O)[C@H]1CC(O)=NO1; yes (1)

Query: Confirm if Log IC50 reported for the compound N[C@H](C(=O)O)[C@@H]1CC(O)=NO1 is -5 or above.
Result: no (0)

Query: Confirm if Log IC50 reported for the compound N[C@H](C(=O)O)c1cc(O)no1 is -5 or above.
Result: yes (1)

Query: Confirm if Log IC50 reported for the compound NC(C(=O)O)C1CC(O)=NO1 (racemic; form 1) [TRICHOLOMIC ACID] is -5 or above.
Result: no (0)

* * *

procedureText: Displacement of [3H]AMPA from AMPA receptor in rat cortical membrane
Format: cell membranes
pIC50: −log10 of the molar value.
quantityMeasured: pIC50

Below, 2 compounds whose answers are already recorded.
N[C@H](C(=O)O)c1cc(O)no1; < 4.00
N[C@@H](C(=O)O)[C@H]1CC(O)=NO1; < 4.00

// switching to the query compound
Query: // Input: N[C@H](C(=O)O)[C@H]1CC(O)=NO1 . Output its pIC50 only.
Result: < 4.00

The measured values listed here are drawn from ChEMBL document CHEMBL1142433.
